MHET released values, listed per item
Method notes: MHET released, HPLC; higher = more MHET released; extreme values may be limits of the assay
Conditions: PET substrate: aFilm; 70 °C; pH 5.5; 24 h

| Residue string | Display unit | MHET released |
| --- | --- | --- |
| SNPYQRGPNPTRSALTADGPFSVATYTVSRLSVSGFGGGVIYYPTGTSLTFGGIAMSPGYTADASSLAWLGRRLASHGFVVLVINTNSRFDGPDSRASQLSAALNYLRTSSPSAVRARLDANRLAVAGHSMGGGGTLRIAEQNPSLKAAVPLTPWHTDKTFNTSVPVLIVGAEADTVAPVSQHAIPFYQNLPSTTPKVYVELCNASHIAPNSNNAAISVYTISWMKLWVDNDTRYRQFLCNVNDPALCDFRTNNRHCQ [LCC-ICCG] | mM | 0.246 |
| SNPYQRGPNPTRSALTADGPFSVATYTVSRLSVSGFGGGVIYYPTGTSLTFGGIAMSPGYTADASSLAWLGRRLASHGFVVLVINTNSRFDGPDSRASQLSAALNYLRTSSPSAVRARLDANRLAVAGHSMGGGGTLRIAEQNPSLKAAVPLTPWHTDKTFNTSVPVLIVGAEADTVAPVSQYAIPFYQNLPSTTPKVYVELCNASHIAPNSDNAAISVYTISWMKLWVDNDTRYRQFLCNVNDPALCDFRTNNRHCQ [LCC-A2] | mM | 0.429 |
| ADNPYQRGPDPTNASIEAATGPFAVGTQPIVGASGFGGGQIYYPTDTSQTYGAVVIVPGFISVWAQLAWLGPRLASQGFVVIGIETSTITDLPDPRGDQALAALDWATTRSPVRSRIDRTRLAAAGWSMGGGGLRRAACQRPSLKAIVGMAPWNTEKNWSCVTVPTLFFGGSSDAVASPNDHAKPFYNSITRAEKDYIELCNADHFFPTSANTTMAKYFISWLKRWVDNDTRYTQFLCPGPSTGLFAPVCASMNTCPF [CaPETaseM9] | mM | 0 |
| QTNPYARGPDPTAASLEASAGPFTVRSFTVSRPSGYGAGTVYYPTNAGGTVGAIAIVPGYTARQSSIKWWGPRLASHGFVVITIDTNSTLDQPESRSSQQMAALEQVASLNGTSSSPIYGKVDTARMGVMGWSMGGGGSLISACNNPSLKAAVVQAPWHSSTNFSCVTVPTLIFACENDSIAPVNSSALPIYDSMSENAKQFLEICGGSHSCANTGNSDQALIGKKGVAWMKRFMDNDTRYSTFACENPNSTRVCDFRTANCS [Z1-PETase] | mM | 0 |
| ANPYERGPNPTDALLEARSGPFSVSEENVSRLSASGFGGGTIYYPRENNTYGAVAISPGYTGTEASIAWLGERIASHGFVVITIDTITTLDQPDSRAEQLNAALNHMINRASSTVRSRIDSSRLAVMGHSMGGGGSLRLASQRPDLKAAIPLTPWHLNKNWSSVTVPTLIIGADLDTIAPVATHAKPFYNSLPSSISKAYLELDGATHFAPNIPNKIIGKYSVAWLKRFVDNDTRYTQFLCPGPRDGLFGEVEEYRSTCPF [TfCut2] | mM | 0.00251 |
| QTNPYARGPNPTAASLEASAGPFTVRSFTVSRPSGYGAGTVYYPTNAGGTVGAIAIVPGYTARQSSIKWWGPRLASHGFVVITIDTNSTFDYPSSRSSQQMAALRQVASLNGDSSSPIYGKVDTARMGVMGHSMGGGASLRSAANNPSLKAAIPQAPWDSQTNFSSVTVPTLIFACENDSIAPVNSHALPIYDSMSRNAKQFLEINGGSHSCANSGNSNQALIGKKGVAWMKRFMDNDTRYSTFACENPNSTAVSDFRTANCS [DuraPETase] | mM | 0 |
| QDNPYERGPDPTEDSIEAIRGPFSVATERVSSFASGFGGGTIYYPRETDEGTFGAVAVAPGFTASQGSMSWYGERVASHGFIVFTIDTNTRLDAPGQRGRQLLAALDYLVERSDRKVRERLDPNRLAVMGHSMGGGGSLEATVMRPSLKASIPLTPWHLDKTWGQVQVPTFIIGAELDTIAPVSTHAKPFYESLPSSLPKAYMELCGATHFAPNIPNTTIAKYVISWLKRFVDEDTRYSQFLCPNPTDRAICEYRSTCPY [Cut190*SS] | mM | 0 |

Entry source: the supplement of paper PMC11196671
